Assign IC50 to each entry below.
# target.or.system: Replicase polyprotein 1ab (Severe acute respiratory syndrome coronavirus)
# measurement.notes: Inhibition of ATPase activity of SARS coronavirus helicase assessed as phosphate release by malachite green assay

Worked cases, answers included:
smiles.repr	IC50
O=c1c(O)ccc2oc(CNCc3ccc(Cl)cc3)cc(O)c1-2	> 50 µM
N#Cc1cccc(CNCc2cc(O)c3c(=O)c(O)ccc-3o2)c1	> 50 µM

Consider the record given below.
Entry `O=c1c(O)ccc2oc(CNCc3cccc(Cl)c3)cc(O)c1-2` ; assay system Replicase polyprotein 1ab (Severe acute respiratory syndrome coronavirus); IC50 recorded at > 50 µM
